Listing of entries alongside the reported Δd3 day 14.
- experimental details: Emulsion stability by TD-NMR droplet-size distribution
- Type: physicochemical
- experimental parameters: 1 mM acid in 1% Na2SO4, 1:1 with GB oil; change days 1-14
Provide a numeric answer; units are not to be included.

Here's what some known entries look like.
> print(dat)
     substance.smiles  observed.property  measured.number
1  O=C(O)[C@@H]1CCCN1         Δd3 day 14            1.115
2   Cc1ccc(C(=O)O)cc1         Δd3 day 14           1.6025
3       O=C(O)C1CCCC1         Δd3 day 14           1.4425

Attention now shifts to the item below.
Q: Query (compound): O=C(O)C1CCCCC1 ; field requested: Δd3 day 14
Result: 1.572
